Source listed as patent US11118200B2.

Exercise: for every item that follows, state its recorded Specific activity, SEQ ID NO: 3.
test system: enzyme of SEQ ID NO:3; experiment: Screening of carbonyl-containing compounds with ammonia as amine source (specific activity, absorbance at 340 nm); format: biochemical, Microbacterium sp. MA1; details: 0.2 mM NADH (best of NADH/NADPH); 10 mM of carbonyl-containing compound; ammonia as amine source
Quick reminder: number only, in mU.mg^-1, skip the unit.

Please indicate recorded Specific activity, SEQ ID NO: 3 of O=C1CCCCC1 measured with enzyme of SEQ ID NO:3. 614.5

Please indicate recorded Specific activity, SEQ ID NO: 3 of CC1CCCCC1=O (racemic) measured with enzyme of SEQ ID NO:3. 337.0

Please indicate recorded Specific activity, SEQ ID NO: 3 of CC(C)C=O measured with enzyme of SEQ ID NO:3. 541.0

---

test system: enzyme of SEQ ID NO:2; assay: Screening of carbonyl-containing compounds with ammonia as amine source (specific activity, absorbance at 340 nm); assay type: biochemical, Cystobacter fuscus DSM 2262; conditions: 0.2 mM NADH (best of NADH/NADPH); 10 mM of carbonyl-containing compound; ammonia as amine source
Marks after values point to notes of the source that are not given here.
Exercise: for every item that follows, state its recorded Specific activity, SEQ ID NO: 2.

In one line, give reported Specific activity, SEQ ID NO: 2 of the entry CCC(C)C=O (centres unmarked) [drawing 148] . 231.9^a mU.mg^-1

In one line, give reported Specific activity, SEQ ID NO: 2 of the entry CC(C)C=O [2-methylpropanal] . 119.2^a mU.mg^-1

In one line, give reported Specific activity, SEQ ID NO: 2 of the entry CC(=O)C(C)C . 68.2^a mU.mg^-1

In one line, give reported Specific activity, SEQ ID NO: 2 of the entry O=C1C=CCCC1 . 2.5^a mU.mg^-1

In one line, give reported Specific activity, SEQ ID NO: 2 of the entry O=C1CCCCC1 [cyclohexanone] . 135.9 mU.mg^-1

---

Test system: enzyme of SEQ ID NO:2
Test: Screening of carbonyl-containing compounds with ammonia as amine source (specific activity, absorbance at 340 nm)
Format: biochemical, Cystobacter fuscus DSM 2262
Details: 0.2 mM NADPH (best of NADH/NADPH); 10 mM of carbonyl-containing compound; ammonia as amine source
Procedure: All the reactions were conducted at 25° C. in spectrophotometric cell (10 mm light path). To a mixture of ammonium formate buffer (2 M NH4HCO2/NH4OH, pH 9.5), NADH or NADPH (0.2 mM) and an appropriate amount of purified enzyme was added.
Marks after values point to notes of the source that are not given here.
outcomeMeasure: Specific activity, SEQ ID NO: 2

In one line, give reported Specific activity, SEQ ID NO: 2 of the entry CC1CCC(=O)C1 (stereo not shown) . 13.9^b mU.mg^-1

In one line, give reported Specific activity, SEQ ID NO: 2 of the entry CCCCC=O [drawing 146] . 72.9^b mU.mg^-1

In one line, give reported Specific activity, SEQ ID NO: 2 of the entry CCCC(C)=O [drawing 142] . 6.4^b mU.mg^-1

In one line, give reported Specific activity, SEQ ID NO: 2 of the entry CC1CCCC(=O)C1 (racemic) . 37.0^b mU.mg^-1

In one line, give reported Specific activity, SEQ ID NO: 2 of the entry CC1CCCCC1=O (racemic) . 14.8^b mU.mg^-1

In one line, give reported Specific activity, SEQ ID NO: 2 of the entry O=C1CCCC1 . 24.2^b mU.mg^-1

In one line, give reported Specific activity, SEQ ID NO: 2 of the entry CCC(=O)CC . 3.6^b mU.mg^-1

In one line, give reported Specific activity, SEQ ID NO: 2 of the entry CC1CCCC1=O (stereo not shown) . 8.8^b mU.mg^-1

In one line, give reported Specific activity, SEQ ID NO: 2 of the entry CC1CCC(=O)CC1 . 20.4^b mU.mg^-1

In one line, give reported Specific activity, SEQ ID NO: 2 of the entry CC(=O)C(C)O (stereo not shown) . 42.4^b mU.mg^-1
